- System under test: POS-1 (Caenorhabditis elegans) binding to mex-3 RNA
- Protocol details: C. elegans POS-1 RNA interaction disruptors – biochemical, fluorescence polarization, cherry-picked samples, set 2, counter-screen for MEX-5 RNA-binding inhibitor project, dose response (AID 493130);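 note: POS-1 as maltose binding protein fusion made in E. coli with FITC RNA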
- Applied conditions: POS-1/mex-3 RNA fluorescence polarization, 1 h; at 10 µM (top of the series)
Results filed as inconclusive are left out. Activity calls are given as the source filed them.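 Rule for the calls: active = signal-lowering compounds whose fitted half-maximal concentration is at most ten times their highest tested dose; inconclusive = flat fit between -30 and -70%, or poor fit; inactive = flat within 30%, signal rising, or potency beyond limit.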
Endpoint name: activity change, negative = inhibition

Below are worked cases with known answers.
Compound	activity change, negative = inhibition
O=C1C(Cl)=C(NC2CCCCC2)C(=O)N1c1ccc(Cl)cc1	inactive
O=C(NNc1ncnc2c1cnn2-c1ccc(F)cc1)c1ccco1	inactive
COc1c(OC2OC(C(=O)O)C(O)C(O)C2O)cc(O)c2c(=O)cc(-c3ccccc3)oc12 (stereo not given)	inactive
CCN(CC)c1ccc(C(=O)N/N=C(\C)c2cccnc2)cc1	inactive
Cn1c(O)c(C2=c3ccccc3=NC2=O)[nH]c1=S	inactive

Below: the item to evaluate.
Could you share which activity change, negative = inhibition value was measured for COc1cccc(C2C=C(c3cccs3)Nc3ncnn32)c1OC (stereo not given) ?
inactive

All figures here come from PubChem BioAssay AID493130.
